Ref: paper PMC9482650

Exercise: state measured pKd for each of the binders provided.
target: MAGI2_2, Q86UL8; experiment: holdup assay; design: key: below the threshold = too weak to quantify, mostly under pKd 3.1 to 4; conditions: plain residues with an end cap or a label only (N-terminal biotin on a linker: ado-ado)
Sequence (Q86UL8 410-522): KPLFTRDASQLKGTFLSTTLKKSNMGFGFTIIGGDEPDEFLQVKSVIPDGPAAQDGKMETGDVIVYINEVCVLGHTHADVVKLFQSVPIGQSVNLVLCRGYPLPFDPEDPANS
The answer should be written as a number, with no unit following it.

So for KRPEMTSSSV [MUC3A, MUC3B, Q02505;Q9H195] , the logged pKd turned out to be 3.65

Documented pKd of TRKRSGEAAV [PFKM, P08237] : 4.09

Lookup result for ILRKSTTTTV [PRR16, Q569H4] ; measured pKd: 5.2

The recorded pKd for entry EIPAQSPTCV [FZD10, Q9ULW2] equals 4.17

// recorded pKd for NIAESLESLV [PTPRZ1, P23471] : 4.28

What the record says about GIKKITSTAL [RPS6KA3, P51812] : pKd is 4.16

pKd in this record for PSHPRLQTHV [KIRREL2, Q6UWL6] : 4.82

Query APIAGFSSFV [SDK2, Q58EX2] yields pKd of 3.5

Quick note, pKd for RQKEVRESKC [SCN8A, Q9UQD0] landed at 4.02

KKMLQRRTLL [OR8G1, Q15617] yielded pKd of 4.44

For record NISYRRESAI [KCNJ4, P48050] the listed pKd is 4.74

Measured pKd, QRPYRRGSEI [KCNJ18, B7U540] : 3.8

# binder PTPDLPQTRV [KLHDC7A, Q5VTJ3] ; its pKd = 3.86

Record summary for RFQQRMQTHV [KIRREL1, Q96J84] : reported pKd = 5.49

For record ARESQKVSHV [FAM110B, Q8TC76] the listed pKd is 4.87

Looking up SFISKKEWYV [NECTIN1, Q15223] , I see its pKd listed as 4.96

Measured pKd, IDESKKEWLI [CNTNAP2, Q9UHC6] : 3.78

Entry under test: VLYPREGTEV [FOXI1, Q12951] . Its pKd was 3.74

Noted for DGVNEKVSCV [HTR2A, P28223] : its pKd reads 4.15
